Readings of Opt. effective daily dose for the listed compounds
system: L1210 leukemia; assay: Survival time of mice bearing the L1210 leukemia; type: in vivo, mouse; settings: once daily for six consecutive days, beginning 24 h after tumor implantation; L1210 mice
State the answer as a number, implicitly in mg/kg.

Some solved cases for reference:
INSERT INTO measurements (compound, recorded_result) VALUES
  ('COCC(=O)N(N(CCCl)S(C)(=O)=O)S(C)(=O)=O', 10),
  ('CS(=O)(=O)N(CCCl)N(C(=O)c1ccccc1)S(C)(=O)=O', 20),
  ('CS(=O)(=O)N(CCCl)N(S(C)(=O)=O)S(C)(=O)=O [PRIOR ART, reference compound]', 60),
  ('CCC(=O)N(N(CCCl)S(C)(=O)=O)S(C)(=O)=O', 10),
  ('CC(=O)N(N(CCCl)S(C)(=O)=O)S(C)(=O)=O', 7.5);

IN: Query (compound): `CC(C)(C)C(=O)N(N(CCCl)S(C)(=O)=O)S(C)(=O)=O` ; field requested: Opt. effective daily dose
OUT: 20

IN: Query (compound): `CCCC(=O)N(N(CCCl)S(C)(=O)=O)S(C)(=O)=O` ; field requested: Opt. effective daily dose
OUT: 10

---

system: L1210 leukemia; test: Survival time of mice bearing the L1210 leukemia; format: in vivo, mouse; conditions: at opt. effective daily dose; vehicle control +2.0
ENDPOINT: AvΔ wt % (average percent change in body weight from onset to termination of therapy) (%)
State the answer as a number, implicitly in %.

INSERT INTO measurements (compound, recorded_result) VALUES
  ('CS(=O)(=O)N(CCCl)N(S(C)(=O)=O)S(C)(=O)=O [PRIOR ART, reference compound]', -7.2),
  ('CS(=O)(=O)N(CCCl)N(C(=O)c1ccccc1)S(C)(=O)=O [Example 6]', -7.7),
  ('CC(C)(C)C(=O)N(N(CCCl)S(C)(=O)=O)S(C)(=O)=O [Example 4]', 0.0),
  ('CCCC(=O)N(N(CCCl)S(C)(=O)=O)S(C)(=O)=O [Example 3]', 0.0),
  ('CCC(=O)N(N(CCCl)S(C)(=O)=O)S(C)(=O)=O [Example 2]', -6.4);

Then there is this compound:
IN: Lab request: please report AvΔ wt % (average percent change in body weight from onset to termination of therapy) under test system L1210 leukemia for COCC(=O)N(N(CCCl)S(C)(=O)=O)S(C)(=O)=O [Example 5]
OUT: -8.4
